- Experiment Summary: qHTS assay for measurement of the activity of small molecule inhibitors on Zika virus induced Caspase-3 activity in human iPSC derived neural progenitor cells (hNPCs) (AID 1224857); also: nearly all actives have a fitted effect of over 65% in size
- Condition Summary: hNPCs ZIKV-induced caspase-3/7, Caspase-Glo luminescence, 6 h; series mostly up to 45.7 µM
- Method: National Center for Advancing Translational Sciences [NCATS] Johns Hopkins University School of Medicine […] The medium for hNPCs consists of DMEM/F12, N2 supplement (ThermoFisher, Cat.# 17502048), NEAA (ThermoFisher, Cat. # 11140050), 2 ug/ml heparin, 2 uM cyclopamine, and B27 (ThermoFisher, Cat. # 17504044). […] The luminescence intensity of the assay plates was measured using a ViewLux plate reader (PerkinElmer). […]
Results filed as inconclusive are left out. The source made the active and inactive calls. Calls follow the shape of the dose curve; as a rule, active = well fitted inhibition curve with a large enough effect; inconclusive = small, poorly fitted or top-dose-only effect; inactive = no such curve, though single readings can be large or run the other way.
Returns: one label drawn from Yes for active, No for inactive

Molecule	Group
Nc1nc(Nc2ccccc2)nc2c1ncn2[C@@H]1O[C@H](CO)C(O)[C@H]1O (stereo partly specified)	No
COC(=O)c1c(C)[nH]c(C)c1C(=O)c1ccccc1Cc1ccccc1	No
O=C1NC(=O)/C(=C/c2ccc(-c3ccc(F)cc3O)o2)S1	Yes
CSc1ccccc1N1CCN(CCCCCC(=O)NC2CCCc3ccccc32)CC1 (stereo unspecified)	No
CC(C)NC[C@@H](O)c1ccc(O)c(O)c1	No

stdin: Which outcome was assigned to Nc1nc2ccc([N+](=O)[O-])cc2s1 in this test?
stdout: Yes

stdin: # fetch the recorded call for O=C(NOCC1CC1)c1cc(Br)c(F)c(F)c1Nc1ccc(I)cc1Cl here
stdout: No

====

- Tested on: ICS
- Experiment Summary: qHTS profiling for inhibitors of Plasmodium falciparum proliferation (AID 504749); also: nearly all actives have a fitted effect of over 60% in size
- Condition Summary: P. falciparum in erythrocytes, SYBR Green DNA, 72 h; series mostly up to 28.7 µM
Inconclusive results are not listed. Calls of active or inactive are those of the source. Calls come from the whole dose curve; as a rule, active = well fitted inhibition curve with a large enough effect; inconclusive = small, poorly fitted or top-dose-only effect; inactive = flat fitted curve, though single readings scatter.
Result category, one only: class 1 = active, class 0 = inactive

The following compounds have reported results that may help.
Compound	Group
COc1cc(/C=C/C(=O)N2CCN(CC(=O)N3CCCC3)CC2)cc(OC)c1OC	class 1
CC1OC1P(=O)(O)O (stereo not drawn)	class 0
C=CC(N)CCC(=O)O (stereo not drawn)	class 0

stdin: Can you look up the reported call for O=C(CCN1CCN(CCO)CC1)N1c2ccccc2Sc2ccc(C(F)(F)F)cc21 for me?
stdout: class 1

stdin: Per the assay record, what outcome was assigned to C#C[C@]1(O)CC[C@H]2[C@@H]3CCc4cc(O)ccc4[C@H]3CC[C@@]21C ?
stdout: class 0

stdin: Called result for COc1ccc(/C=C/C(=O)Nc2ccccc2C(=O)O)cc1OC
stdout: class 0

stdin: Each compound tested received a call. Report the one for O=C(O)COc1ccc(C(=O)c2cccs2)c(Cl)c1Cl .
stdout: class 0

stdin: Recorded test outcome, item CC1(C)C[C@@H]1C(=O)N/C(=C\CCCCSC[C@H](N)C(=O)O)C(=O)O
stdout: class 0

====

- Target Entity: Rap guanine nucleotide exchange factor 3 (Homo sapiens) (UniProt O95398)
- Sequence (O95398 whole entry, looked up): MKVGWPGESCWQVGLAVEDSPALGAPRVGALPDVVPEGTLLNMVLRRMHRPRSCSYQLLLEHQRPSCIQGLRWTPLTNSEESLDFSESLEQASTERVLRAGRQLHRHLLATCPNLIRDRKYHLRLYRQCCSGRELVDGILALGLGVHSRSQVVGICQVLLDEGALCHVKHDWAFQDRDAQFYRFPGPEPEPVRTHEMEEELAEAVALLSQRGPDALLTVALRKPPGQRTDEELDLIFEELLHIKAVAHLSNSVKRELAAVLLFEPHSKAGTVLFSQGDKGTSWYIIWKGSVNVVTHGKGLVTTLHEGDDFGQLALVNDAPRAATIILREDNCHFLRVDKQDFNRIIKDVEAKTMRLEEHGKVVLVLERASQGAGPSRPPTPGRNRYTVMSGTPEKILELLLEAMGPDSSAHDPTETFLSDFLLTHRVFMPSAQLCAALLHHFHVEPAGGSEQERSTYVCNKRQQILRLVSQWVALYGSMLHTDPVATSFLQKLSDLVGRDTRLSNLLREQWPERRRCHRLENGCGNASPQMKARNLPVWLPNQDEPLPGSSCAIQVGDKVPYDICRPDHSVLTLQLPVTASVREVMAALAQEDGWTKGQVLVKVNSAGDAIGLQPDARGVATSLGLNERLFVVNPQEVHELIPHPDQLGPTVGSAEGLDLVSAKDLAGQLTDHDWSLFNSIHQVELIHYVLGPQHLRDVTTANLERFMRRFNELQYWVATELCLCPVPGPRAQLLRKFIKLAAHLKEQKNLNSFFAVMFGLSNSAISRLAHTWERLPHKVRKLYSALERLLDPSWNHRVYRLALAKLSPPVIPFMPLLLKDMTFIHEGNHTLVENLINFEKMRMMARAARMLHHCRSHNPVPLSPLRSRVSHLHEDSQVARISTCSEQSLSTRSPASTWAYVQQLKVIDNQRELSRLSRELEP
- Experiment Summary: Confirmatory qHTS for antagonist of cAMP-regulated guanine nucleotide exchange factor 3 (EPAC1) (AID 1645880); also: nearly all actives have a fitted effect of over 55% in size
- Condition Summary: EPAC1 Rap1B-BODIPY-GDP exchange, fluorescence; series mostly up to 115 µM
Results filed as inconclusive are left out. Active and inactive are the calls of the source. Calls follow the shape of the dose curve; as a rule, active = well fitted inhibition curve with a large enough effect; inconclusive = small, poorly fitted or top-dose-only effect; inactive = no such curve, though single readings can be large or run the other way.
Respond using exactly one of the listed classes: active, inactive

CC1(C)[C@@H](O)CC[C@]2(C)[C@H]3C(=O)C=C4[C@@H]5C[C@@](C)(C(=O)O)CC[C@]5(C)CC[C@@]4(C)[C@]3(C)CC[C@@H]12 inactive
Brc1c(Br)c(Br)c2n[nH]nc2c1Br active
O=C1NC(=O)/C(=C/c2ccc(-c3ccc(F)cc3O)o2)S1 active
O=C(O)c1ccccc1Nc1cccc(C(F)(F)F)c1 inactive
Cn1cc(C2=C(c3ccc(Cl)cc3Cl)C(=O)NC2=O)c2ccccc21 inactive

stdin: Tell me the assay call for c1ccc(CCNc2nc(-c3ccccc3)cs2)cc1 please.
stdout: inactive

stdin: Returns: the outcome recorded for CC(=O)[C@]1(O)Cc2c(O)c3c(c(O)c2[C@@H](O[C@H]2C[C@H](N)[C@H](O)[C@H](C)O2)C1)C(=O)c1c(O)cccc1C3=O in this assay.
stdout: inactive

stdin: Called result for O=C(O)c1cc([N+](=O)[O-])ccc1NCCCc1ccccc1
stdout: inactive

stdin: Test call for this compound, please: N#C/C(=C\c1ccc(O)c(O)c1)C(=O)c1ccc(O)c(O)c1
stdout: active

stdin: Test call, this compound: Nc1cc(-c2ccncc2)c[nH]c1=O
stdout: inactive

stdin: Test call, this compound: COC(=O)[C@H]1[C@H]2C[C@@H]3c4[nH]c5cc(OC)ccc5c4CCN3C[C@H]2C[C@@H](OC(=O)/C=C/c2cc(OC)c(OC)c(OC)c2)[C@@H]1OC
stdout: inactive

====

- Experiment Summary: qHTS for Inhibitors of Cell Surface uPA Generation: Validation Assay (AID 493164);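 also: RAW 264.7 macrophage cells exposed to compound for 18 h; 0% is about no effect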
- Condition Summary: mouse cells, plasminogen activation; series mostly up to 38.3 µM
The source made the active and inactive calls. The call rests on the fitted dose curve; in most records, active means well fitted curve in the direction sought with a large enough effect; inconclusive means small, poorly fitted or top-dose-only effect, or effect the other way, or another doubt; inactive means no such curve, though single readings can be large or run the other way.
Readout Kind: outcome

Example molecules with recorded outcome:
Molecule	outcome
NS(=O)(=O)C#Cc1ccccc1	inactive
O=C(O)c1cc(=O)c2c(Cl)cc(Cl)cc2[nH]1	inactive
CCN1/C(=C/C(C)=O)Sc2ccc(OC)cc21	inactive
CN1CCC[C@H]1c1cccnc1	inactive

stdin: I'd like to know its outcome. The molecule in question is COc1cc(OC)c(/C=C2/C(=O)Nc3ccccc32)c(OC)c1
stdout: inactive

stdin: // outcome lookup, key: CC12C(=O)OC(=O)C1(C)C1CCC2O1 (stereo not drawn)
stdout: inactive

stdin: Please look up its outcome: CCCCCCCCCCCCCCCC(=O)OC(CC(=O)O)C[N+](C)(C)C (stereo not drawn)
stdout: inactive

stdin: Endpoint output: outcome of C=CC(=O)c1ccc(CCCCCC)cc1 . Value?
stdout: inactive

====

- Target Entity: Thyrotropin-releasing hormone receptor (Homo sapiens) (UniProt P34981)
- Sequence (P34981 whole entry, looked up): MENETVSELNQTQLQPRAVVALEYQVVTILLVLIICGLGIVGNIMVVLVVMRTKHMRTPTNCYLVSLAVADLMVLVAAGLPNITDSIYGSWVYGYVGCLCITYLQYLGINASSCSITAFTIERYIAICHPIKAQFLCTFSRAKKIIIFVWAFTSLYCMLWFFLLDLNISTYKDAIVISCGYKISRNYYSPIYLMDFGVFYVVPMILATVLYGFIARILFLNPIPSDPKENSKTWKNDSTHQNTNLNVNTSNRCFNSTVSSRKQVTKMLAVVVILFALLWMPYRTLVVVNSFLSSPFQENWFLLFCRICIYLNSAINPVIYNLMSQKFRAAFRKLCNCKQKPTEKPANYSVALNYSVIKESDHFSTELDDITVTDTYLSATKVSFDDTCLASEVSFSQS
- Experiment Summary: qHTS for Small Molecule Agonists and Allosteric Enhancers of Human TRH Receptor: Validation Screen for Agonists (AID 493127);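 also: intracellular calcium rise by fluo-8 fluorescence before TRH EC20 addition; 0% is about no effect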
- Condition Summary: TRH receptor agonist cell assay; at 2 µM; hits give high values
Readout Kind: activation (%)
// units = %; emit number, no label

Compound	Target Entity	activation, %
O=C(O)CCCC[C@@H]1CCSS1	Thyrotropin-releasing hormone receptor (Homo sapiens) (UniProt P34981)	0.438
O=C(O)[C@@H]1C[C@@H](C(=O)O)N1	Thyrotropin-releasing hormone receptor (Homo sapiens) (UniProt P34981)	1.06
CN1CCc2cc(O)c(O)cc2C(c2ccccc2)C1 (stereo unspecified)	Thyrotropin-releasing hormone receptor (Homo sapiens) (UniProt P34981)	-0.188
CN1C2CCC1CC(OC(=O)C(O)c1ccccc1)C2 (stereo unspecified)	Thyrotropin-releasing hormone receptor (Homo sapiens) (UniProt P34981)	1.19

stdin: What value of activation on Thyrotropin-releasing hormone receptor (Homo sapiens) (UniProt P34981) does COc1ccc(NC(=O)/C=C/c2ccc(Cl)cc2)cc1 have?
stdout: 1.19

stdin: Query for Thyrotropin-releasing hormone receptor (Homo sapiens) (UniProt P34981): what activation does the record show for OC[C@H]1O[C@@H](n2cnc3c(NC4CCCCC4)ncnc32)[C@H](O)[C@@H]1O ?
stdout: 0.562

====

- Target Entity: Glucocorticoid receptor (Homo sapiens)
- Experiment Summary: qHTS assay for small molecule agonists of glucocorticoid receptor signaling (AID 588532);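 also: 100% = dexamethasone at 0.1 µM and 0% = DMSO only wells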
- Condition Summary: HeLa MMTV-bla, beta-lactamase ratio, agonist, 18 h; hits give high values; percent of dexamethasone control, DMSO zero
Records with an inconclusive call do not appear.
Quick rule: activation of at least -10% means y, below that means n.

Compound	Group
COc1cc(/C=C/C(=O)CC(=O)/C=C/c2ccc(O)c(OC)c2)ccc1O	n
O=C(O)c1cc(O)c(O)c(O)c1	y

stdin: Check if activation >= -10% (inclusive). Item: O=C(Nc1ccccc1)c1cc([N+](=O)[O-])ccc1Cl
stdout: y

stdin: Has CN(C)CCC(c1ccc(Cl)cc1)c1ccccn1 (centres undefined) a recorded activation greater than or equal to -10%?
stdout: y

stdin: Quick check, activation >= -10%? CC(C)OC(=O)c1cc(C(=O)OC(C)C)cc([N+](=O)[O-])c1
stdout: y

stdin: Reported activation at or above -10%? O=C(O)/C=C\C(=O)O
stdout: y

stdin: Confirm if activation reported for the compound Oc1ccccc1O is -10% or above.
stdout: y

stdin: Entry O=C(O)c1ccccc1Nc1cccc(C(F)(F)F)c1 : is its activation no less than -10%?
stdout: n

====

- Target Entity: D(1A) dopamine receptor (Homo sapiens) (UniProt P21728)
- Sequence (P21728 whole entry, looked up): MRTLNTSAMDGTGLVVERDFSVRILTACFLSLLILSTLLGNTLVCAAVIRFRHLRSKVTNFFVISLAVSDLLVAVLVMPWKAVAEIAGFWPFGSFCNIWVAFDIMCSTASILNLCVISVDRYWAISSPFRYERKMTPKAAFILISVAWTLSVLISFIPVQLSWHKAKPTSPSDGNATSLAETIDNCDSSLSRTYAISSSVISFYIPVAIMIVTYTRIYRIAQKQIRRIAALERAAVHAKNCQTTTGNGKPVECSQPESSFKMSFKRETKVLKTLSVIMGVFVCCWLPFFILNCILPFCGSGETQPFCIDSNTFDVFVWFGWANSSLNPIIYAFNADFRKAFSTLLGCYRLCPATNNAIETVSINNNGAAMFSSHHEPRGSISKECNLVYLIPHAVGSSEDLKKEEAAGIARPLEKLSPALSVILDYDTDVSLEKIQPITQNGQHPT
- Experiment Summary: HTS Assay for Allosteric Agonists of the Human D1 Dopamine Receptor: Primary Screen for Agonists (AID 488981); as to activation: 0% is about no effect
- Condition Summary: Inducible HEK293 T-REx D1 cells, calcium-flux fluorescence, 180 s kinetic; series mostly up to 41.8 µM
- Procedure: Dopamine receptors (DARs) are involved in the etiology and/or therapy of a number of neuropsychiatric and endocrine disorders. […] Freshly passaged cells are plated in 1536 well black, clear bottom plates at a density of 4000 cells/well in 3 ul of complete media containing 1x tetracycline inducer. […] Following the 180 second read, 1 ul of an EC20 of dopamine is delivered by an onboard pipette head. […]
Inconclusive results are not listed. Calls of active or inactive are those of the source. Calls follow the shape of the dose curve; as a rule, active = well fitted activation curve with a large enough effect; inconclusive = small, poorly fitted or top-dose-only effect; inactive = flat fitted curve, though single readings scatter.
I would appreciate it if you answered using one of these outcomes: active, inactive

Compound	Target Entity	Group
O=C1O/C(=C/Br)CCC1c1cccc2ccccc12 (configuration not stated)	D(1A) dopamine receptor (Homo sapiens) (UniProt P21728)	inactive
CNc1ncnc2c1ncn2[C@@H]1O[C@H](CO)[C@@H](O)[C@H]1O	D(1A) dopamine receptor (Homo sapiens) (UniProt P21728)	inactive
CCC1C(=O)OCC1Cc1cncn1C (configuration not stated)	D(1A) dopamine receptor (Homo sapiens) (UniProt P21728)	inactive
Nc1ncnc2c1ncn2[C@@H]1O[C@H](COP(=O)(O)OP(=O)(O)OP(=O)(O)OP(=O)(O)OC[C@@H]2O[C@H](n3cnc4c(N)ncnc43)[C@@H](O)[C@H]2O)[C@@H](O)[C@H]1O	D(1A) dopamine receptor (Homo sapiens) (UniProt P21728)	active
Cc1ccc(C(=O)O[C@H](C(=O)O)[C@@H](OC(=O)c2ccc(C)cc2)C(=O)O)cc1 (tested in a mixture with another compound)	D(1A) dopamine receptor (Homo sapiens) (UniProt P21728)	inactive
Cn1c(=O)c2[nH]c(-c3ccccc3)nc2n(C)c1=O	D(1A) dopamine receptor (Homo sapiens) (UniProt P21728)	inactive

stdin: Which outcome was entered for the compound Cc1cc2c(cc1Cl)N(C(=O)Nc1ccc(Oc3cccnc3C)nc1)CC2 in this test?
stdout: inactive

stdin: What did this assay record as the result for CCc1c(C(=O)NCCc2ccc(N3CCCCC3)cc2)[nH]c2ccc(Cl)cc12 ?
stdout: inactive

stdin: Called result for Cc1ccccc1CNc1ncnc2c1ncn2C1OC(CO)C(O)C1O (configuration not stated)
stdout: inactive

stdin: Returns: the outcome recorded for Cc1nc2sccn2c(=O)c1CCN1CCC(=C(c2ccccc2)c2ccc(F)cc2)CC1 in this assay.
stdout: inactive

stdin: Test call, this compound: O=C(O)[C@@H]1C[C@H](C(=O)O)N1
stdout: inactive

stdin: Hi, do you know how Cn1ncc(S(=O)(=O)Cc2ccccc2)c(Br)c1=O came out in this test?
stdout: inactive

stdin: Lab log entry: S=C(S)OC1CC2CC1C1CCCC21 (configuration not stated) — outcome as called in the assay?
stdout: inactive

stdin: Test call for this compound, please: N#C/C(=C\c1ccc(-c2cc(Cl)ccc2Cl)o1)C(=O)Nc1cccc2ncccc12
stdout: inactive

stdin: Could you please tell me the result logged for NCCCCC(=O)O in this assay?
stdout: inactive

stdin: Hi, sorry to bother you, what did the test record for O=C(O)c1cc(=O)c2ccccc2[nH]1 ?
stdout: inactive

stdin: Can you look up the reported call for CN(C)c1nc(N)c(C(=O)N=C(N)N)nc1Cl for me?
stdout: inactive

stdin: # fetch the recorded call for CC(C)NC[C@H](O)COc1cccc2[nH]ccc12 here
stdout: inactive

stdin: Record request — test call for CC1OC1P(=O)(O)O (configuration not stated)
stdout: inactive

stdin: # outcome recorded in this test, key = NO
stdout: inactive

stdin: Called result for COc1cc(OC)c(/C=C2/C(=O)Nc3ccccc32)c(OC)c1
stdout: inactive

stdin: Tell me the assay call for CC(C)CC(NP(=O)(O)O[C@@H]1O[C@@H](C)[C@H](O)[C@@H](O)[C@H]1O)C(=O)NC(Cc1c[nH]c2ccccc12)C(=O)O (some centres not stated) please.
stdout: inactive
